molecular target: UniProtKB Q9HBX9; assay: human RXFP1 (hRXFP1) HEK293 cAMP assay (HTRF); conditions: HEK293 cells stably expressing human RXFP1, 30 min at room temperature
Endpoint Label: EC50 (nM)
Write the answer as a number in nM, unit excluded.

Compound	Number
COc1ncc(C2=NOC3CC(CO)CC23)cc1C(=O)N[C@H]1[C@@H](C(=O)N[C@H](C)C2(C)CC2(F)F)[C@H]2CC[C@@H]1/C2=C\C(F)(F)F (some centres unmarked) [Example 116]	2.7

input: Give reported EC50 value for O=C(N[C@@H]1C2CCC(/C2=C/C(F)(F)F)[C@@H]1C(=O)Nc1ccc(F)c(C(F)(F)F)c1)c1cc(Br)cnc1OCCO (some centres unmarked)
output: 770

input: Give reported EC50 value for COc1ncc(Cl)cc1C(=O)N[C@@H]1C2CCC(/C2=C/C(F)(F)F)[C@@H]1C(=O)Nc1ccc(F)c(C(F)(F)F)c1 (some centres unmarked)
output: 940

input: Give reported EC50 value for COc1ncc(C2=NOC3CC(C(N)=O)CC23)cc1C(=O)N[C@H]1[C@@H](C(=O)Nc2ccc(F)c(C(F)(F)F)c2)[C@H]2CC[C@@H]1/C2=C\C1CC1 (some centres unmarked) [Example 66]
output: 1.3

input: Give reported EC50 value for Cc1nc(O)c(C(=O)N[C@H]2[C@@H](C(=O)Nc3ccc(F)c(C(F)(F)F)c3)[C@H]3CC[C@@H]2/C3=C\C(F)(F)F)cc1-c1cccc(C(=O)O)c1
output: 2800

input: Give reported EC50 value for COc1ncc(C#CCO)cc1C(=O)N[C@@H]1C2CCC(/C2=C/C(F)(F)F)[C@@H]1C(=O)Nc1ccc(F)c(C(F)(F)F)c1 (some centres unmarked)
output: 153

input: Give reported EC50 value for COc1ncc(-c2cc([C@H](OC(=O)NC3CCC3)C(F)(F)F)ccc2F)cc1C(=O)N[C@H]1[C@@H](C(=O)NC(C)C2(C)CC2)[C@H]2CC[C@@H]1/C2=C\C1CC(F)(F)C1 (some centres unmarked)
output: 0.5

input: Give reported EC50 value for COc1ncc(-c2cc([C@H](OC(=O)NC3CCC3)C(F)(F)F)ccc2F)cc1C(=O)N[C@@H]1C2CCC(/C2=C/C2CC(F)(F)C2)[C@@H]1C(=O)Nc1ccc(F)c(C(F)(F)F)c1 (some centres unmarked)
output: 7.9

input: Give reported EC50 value for COc1ncc(C2=NOC3CC(CO)CC23)cc1C(=O)N[C@H]1[C@@H](C(=O)Nc2ccc(F)c(C(F)(F)F)c2)[C@H]2CC[C@@H]1/C2=C\C1CCCC1 (some centres unmarked) [Example 101]
output: 1.6

input: Give reported EC50 value for CC1(C)Cc2cc(C3=NOC4COCC34)cc(C(=O)N[C@@H]3C4CCC(/C4=C/C4CC4)[C@@H]3C(=O)Nc3ccc(F)c(C(F)(F)F)c3)c2O1 (some centres unmarked)
output: 3

input: Give reported EC50 value for COc1cc2c(cc1C(=O)N[C@H]1[C@@H](C(=O)Nc3ccc(F)c(C(F)(F)F)c3)[C@H]3CC[C@@H]1/C3=C\C1CC1)CNCC2
output: 2400

* * *

Some compounds, each annotated with its measured pEC50.
molecular target: human RXFP1 (Homo sapiens, UniProt Q9HBX9); test: human RXFP1 (hRXFP1) HEK293 cAMP assay (HTRF); details: HEK293 cells stably expressing human RXFP1, 30 min at room temperature
Sequence (Q9HBX9 whole entry): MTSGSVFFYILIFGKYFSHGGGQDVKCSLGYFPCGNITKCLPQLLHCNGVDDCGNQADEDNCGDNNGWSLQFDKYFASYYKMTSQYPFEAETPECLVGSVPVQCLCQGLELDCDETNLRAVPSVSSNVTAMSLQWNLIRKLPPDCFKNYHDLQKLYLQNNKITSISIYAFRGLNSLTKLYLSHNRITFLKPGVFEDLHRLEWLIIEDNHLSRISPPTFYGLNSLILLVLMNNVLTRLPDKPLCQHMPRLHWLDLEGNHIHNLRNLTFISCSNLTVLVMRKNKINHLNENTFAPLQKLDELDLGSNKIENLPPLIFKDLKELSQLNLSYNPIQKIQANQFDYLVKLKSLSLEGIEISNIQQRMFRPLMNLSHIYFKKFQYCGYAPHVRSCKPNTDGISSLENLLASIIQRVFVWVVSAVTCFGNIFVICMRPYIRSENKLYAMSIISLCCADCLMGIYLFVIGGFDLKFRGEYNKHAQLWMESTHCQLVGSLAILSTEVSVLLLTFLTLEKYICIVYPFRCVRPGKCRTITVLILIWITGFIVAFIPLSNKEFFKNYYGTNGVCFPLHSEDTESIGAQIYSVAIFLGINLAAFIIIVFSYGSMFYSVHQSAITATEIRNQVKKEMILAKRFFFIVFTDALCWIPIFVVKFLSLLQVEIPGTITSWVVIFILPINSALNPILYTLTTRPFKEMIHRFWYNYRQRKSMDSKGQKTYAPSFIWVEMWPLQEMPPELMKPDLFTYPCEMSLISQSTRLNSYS
Reminder that pEC50 is minus the log10 of a molar concentration.

Compound	pEC50
COc1ncc(-c2cc(C(=O)O)ccc2F)cc1C(=O)N[C@@H]1C2CCC(/C2=C/C(F)(F)F)[C@@H]1C(=O)Nc1ccc(F)c(C(F)(F)F)c1 (stereo partly drawn) [Example 28]	7.47
COc1ncc(-c2cc([C@H](O)C(F)(F)F)ccc2F)cc1C(=O)N[C@H]1[C@@H](C(=O)Nc2ccc(F)c(C(F)(F)F)c2)[C@H]2CC[C@@H]1/C2=C\C1CCCC1 [Example 163]	9.00

input: Please report the measured pEC50 for COc1ncc(C2=NOC3CC(C(OC(=O)NC4CCC4)C(F)(F)F)CC23)cc1C(=O)N[C@@H]1C2CCC(/C2=C/C2CC2)[C@@H]1C(=O)Nc1ccc(F)c(C(F)(F)F)c1 (stereo partly drawn) [Example 171] tested on human RXFP1 (Homo sapiens, UniProt Q9HBX9).
output: 8.10
